Assign soluble fraction (log2) to each entry below.
# ASSAY_TEXT: soluble fraction after stress (log2 fold change); higher = more stays soluble; pooled small domains, quantitative proteomics
# CONDITIONS: stress: 50 degC
Output spec: single numeric token, no unit.

[Q] Entry HMDSAFVSDIRDAFDEAGVDSYRFFGTHSFKRGGVQLYRLLGVSDQEIKERGHWQTFSAYFAYVQA has what soluble fraction (log2)?
[A] 0.218

[Q] Entry HMTSLAEQAYRHIRDKLSNGAFVPGEQLVNRVLATEIGVSVIPVREAINRLATEGLVKHVPGSGAFVRQ has what soluble fraction (log2)?
[A] 0.0904

[Q] Entry HMIHMNMGQKINQLRLQKGFTLEELGNLVGVGKSTVRKWENGMIANMKRDKILLVAEALDTSPAYLMGWD has what soluble fraction (log2)?
[A] -1.54

[Q] Entry HMEGVSSESVKEMLKSIIDGEDPHNPVSDQRITDILNSRGINISRRTVAKYRDELGIASSSRRKRY has what soluble fraction (log2)?
[A] 0.0818

[Q] Entry HMNVDALVGMPARVTRAFVQGAGEVKLDNGETWTARLSAGVTDAEASVGQTVSVIAVRGAAVEVAPE has what soluble fraction (log2)?
[A] 0.0386

[Q] Entry HMQISNEEELEKIIENVIESNPEKVKAYQSGKSGLIGFFMGQVMKESGGQANPNLVNQILKGKL has what soluble fraction (log2)?
[A] 0.202

[Q] Entry HMVIDETVLIDLFERLAEDDRPQRVAFRYILALVLLRKRTLQLIGREDEDDGEIWLLRFKGTDGEPIRV has what soluble fraction (log2)?
[A] -0.297

[Q] Entry HMEEYLENLTQSKLLHMLDQLSPAYKTVFTLFVLDELSHEEISKMLNISIGTSKSNLFRARKVMRVLMESE has what soluble fraction (log2)?
[A] -0.397

[Q] Entry HMSFGFFELKSSDTDKLFAYLNNNEHFGNIKEENGLVTAFLTSELDAQTLNKLLFDNGIIASHLVKRK has what soluble fraction (log2)?
[A] -0.51

[Q] Entry HMLTGISALKPTEAFPDEIFYEIFEIEDNIERTQYIESLRNTARQLKRVTEFNNLYKSFVLDYAQRQKQ has what soluble fraction (log2)?
[A] -1.51

[Q] Entry HMVTIEEMMDRLLTRVQRAVNMSFSEFSGEAKEKVEVIVSFLALLELVKQGAVDVLQHENFSDIRIENT has what soluble fraction (log2)?
[A] -0.857

[Q] Entry HMRSIMAVSNYRHKKILEMVYQRKSVSADELAAEFGVSKITIRRDLDTLAMDKLLERTRGGAISISD has what soluble fraction (log2)?
[A] -2.67

[Q] Entry HMDAYMIGHNIAKWRKEKGMTQDQLAEHLSVSGQAVSKWENGASLPDIAILPKLAEIFDVTMDQLFSR has what soluble fraction (log2)?
[A] 0.144

[Q] Entry HMDTSISHLVGRTGEAVTDLRPAGTVMIDGELYDARATEGFIEKGEIVKAIKYQYGQLNVRRVSK has what soluble fraction (log2)?
[A] 0.0877

[Q] Entry HMKVLNVLESEIVRLFKQGQQKDNIRDNIYKTHGQHYNNKKSFNVVFGRKWNSLLEQGFLES has what soluble fraction (log2)?
[A] -0.595

[Q] Entry HMEDETAKVLRLLAENNGYLPYNDKSDPTDIYAFFGMSKKAFKMTTGNLYKQKKIQFTQTGIQLIE has what soluble fraction (log2)?
[A] -0.347

[Q] Entry HMSVDDYLKFSGSGTYWNTQDRGKTYLVNGQQRPLRDKEYLPDVMHRHVIDFITKHRDRPFYIYYSM has what soluble fraction (log2)?
[A] 0.0643

[Q] Entry HMEEFDLNAYITKINSAATLNALKQAYAEANSAALSVKDKDAQRKIIVEKDKRKAELIQETAG has what soluble fraction (log2)?
[A] 0.31

[Q] Entry HMESDRVAHVVAPGETLFSISGKYGIGMGELVAANPVLESRPPRTGDTLLIRLPENPLPAETDAETLS has what soluble fraction (log2)?
[A] 0.121

[Q] Entry HMKITIDSVERDETFRLIWGTGWKPKNKIQELAAIQAKKNGLGRMNEVAGLAAWRGIWQQVAEQVAQEVL has what soluble fraction (log2)?
[A] -1.04

[Q] Entry HMGGSIDITTAPPGAKIYLDADYYGKTPKRLENISAGTYRLHLLHPEKGEVYRSVTLNEKNGTLKIDENLN has what soluble fraction (log2)?
[A] 0.124

[Q] Entry HMLMDVRVPDIIGVEINQAKEILTASSLLIGKITYVSLPEIEKDLVIETSVLAGRRVSAGTVIDITVNKE has what soluble fraction (log2)?
[A] -0.76

[Q] Entry HMLNERQKKIIKILKDNKNWMTGKELSEFLNVSDRTIRSDIEYINRYNNALIESNVKNGYHLNFE has what soluble fraction (log2)?
[A] 0.12

[Q] Entry HMSSSYTEMQLERFKELLNKETLLSSEKNELKNLISDFDKISEIVSPLVVGAYLQLKNEHIETINSLG has what soluble fraction (log2)?
[A] -0.192

[Q] Entry HMQNAETPDVAAEFRTWTSADGQFQVIAKLVKLDGESVHLERQDDGRQIAVPLGKLSSEDRLFLRGVRP has what soluble fraction (log2)?
[A] 0.0447

[Q] Entry HMRVNINVSENILDWVMKRVNPSVLSSKQGELLYAWKEGRKVPTYNQIEKMSKVTGIPLGYFFLEKPPVE has what soluble fraction (log2)?
[A] -0.569

[Q] Entry HMRAPIGFRISNRRKSLKISQVALARLVGISPSYLNLIENNKRDVGGALLQRVALHLNIDIDDL has what soluble fraction (log2)?
[A] -3.02

[Q] Entry HMPVQSNRDALLDIGQTLQVQAWDAQGSARVSYRGSDWTAEFRGPGAAAPGLHRIIAVQGNRLIVEPA has what soluble fraction (log2)?
[A] 0.174

[Q] Entry HMWWTPIILRDALFGVQRFEDFQKNLDVSRATLSSRLTRLVDEGLMEKVEYQQHPVRHEYVLTEKGR has what soluble fraction (log2)?
[A] -0.108

[Q] Entry HMNTVAKELATQATQAKKRAFLDAYAETGIIKRAAEIAGIERKSHYLWLEKDPEYVEAFKSAGEQ has what soluble fraction (log2)?
[A] 0.301

[Q] Entry HMKEVKAPMPGMVLRVEVAPGQEVQEGDPLLVLEAMKMENNLKSPASGTIKSVHVEAGKAVEKGAVLVVF has what soluble fraction (log2)?
[A] -0.0671

[Q] Entry HMNKMIIELGEKLKALRTENHLRQDQVARLVNVEKSSISMYETGMRQPSYTTLVRLADVFNVTTDYLLGRK has what soluble fraction (log2)?
[A] -2.24

[Q] Entry HMINLVPFELKFITAQVLDDIIKKIGINADTIILDINPKKIWVYAGEQELSDIQNIVKNVDVEDNI has what soluble fraction (log2)?
[A] -0.443
